# Test system: HS 578T breast
# Experimental protocol: NCI-60 one-dose screen, 48 h
# Cond: 10 µM unless noted
Compounds without any hit were thinned out: in the full panel of roughly 83,000, 20% have a hit. The source made the active and inactive calls. Rule for the calls: active = growth percent below 10; inactive = the rest.
Your reply should match one of these outcome classes. active, inactive

Prompt: Each molecule tested received a call. Report the one for N#Cc1c(NC(=O)c2ccc([N+](=O)[O-])o2)[n+]([O-])c2cc(F)c(F)cc2[n+]1[O-] .
Response: inactive

Prompt: Answer briefly: the call reported for CCCCCCCCCCCCOB(OCCCCCCCCCCCC)OCCCCCCCCCCCC in this assay.
Response: inactive

Prompt: For this molecule, state the assay outcome: O=C(c1ccccc1)C(Cl)C(Cl)c1ccccc1 (centres undefined)
Response: inactive

Prompt: Hi, sorry to bother you, what did the test record for Nc1ccccc1C#C/C=C\C#Cc1cccc(O)c1 ?
Response: inactive

Prompt: # fetch the recorded call for CCC(=O)Oc1cc(/C=C/C(=O)O[C@H]2C[C@H]3CN4CCc5c([nH]c6cc(OC)ccc56)[C@@H]4C[C@@H]3[C@@H](C(=O)OC)[C@@H]2OC)ccc1OC here
Response: inactive

Prompt: Kindly provide the recorded test outcome for the following molecule: COc1ccc(-c2nc(-c3nc4ccc(F)cc4[nH]3)cc3c2[nH]c2ccccc23)cc1
Response: inactive

Prompt: Look up the recorded call for CCC(c1cccc(Br)c1)C(C(=O)O)c1ccc(OC)cc1 (centres undefined) in this test.
Response: inactive

Prompt: Given O=c1oc2c([nH]c3ccc4ccccc4c32)c2ccccc12 , state the outcome it received in this test.
Response: inactive

Prompt: For this molecule, state the assay outcome: Cc1sc2nc(CSc3nnc(-c4ccco4)o3)[nH]c(=O)c2c1C
Response: inactive

Prompt: Outcome? COC(=O)CCCCCN=Cc1c(O)c(O)c(C(C)C)c2cc(C)c(-c3c(C)cc4c(C(C)C)c(O)c(O)c(C=NCCCCCC(=O)OC)c4c3O)c(O)c12
Response: inactive

Prompt: Please state the recorded outcome for this molecule: COc1ccc(-c2nc3sccn3c2-c2ccnc(NCCCNS(=O)(=O)c3ccc4ccccc4c3)n2)cc1
Response: inactive

Prompt: Could you check what this test reported for Cc1cc(C)c2c(=O)[nH]c(SCC(=O)Nc3cccc(S(=O)(=O)N(C)C)c3)nc2n1 ?
Response: inactive

Prompt: For O=C(CC(O)c1ccncc1)c1ccccc1 (centres undefined) , which call appears in the assay record?
Response: active

Prompt: Assay result, entry COC(=O)CCCCCCN=Cc1c(O)c(O)c(C(C)C)c2cc(C)c(-c3c(C)cc4c(C(C)C)c(O)c(O)c(C=NCCCCCCC(=O)OC)c4c3O)c(O)c12 — outcome?
Response: inactive

====

# Test system: OVCAR-5 ovarian
# Experimental protocol: NCI-60 one-dose screen, 48 h (100 = growth as untreated, 0 = no growth, -100 = all killed)
# Cond: 10 µM unless noted
Compounds without any hit were thinned out: in the full panel of roughly 83,000, 20% have a hit.
Assay metric: growth (%)
Reply numerically in %, unit not repeated.

Prompt: Need growth, item COc1ccc(-c2nc3sccn3c2-c2ccnc(NCCCNS(=O)(=O)c3ccc(C)cc3)n2)cc1
Response: 93.4

Prompt: Could you share which growth value was measured for CC(C)(C)OC(=O)N1C/C(=C\c2cccs2)C(=O)/C(=C/c2cccs2)C1 ?
Response: 109

Prompt: Find the recorded growth belonging to CCC(c1ccc(OC)cc1)C(CC)c1ccc(OCC[N+](C)(C)C)cc1 (stereo not drawn) and report it.
Response: 91

Prompt: Using the record for COc1cc(NCCCN=C(N)NC(N)=NC(C)C)c2ncccc2c1 , report its growth.
Response: 57.6

Prompt: // growth lookup, key: CCn1cc(C(=O)O)c(=O)c2cc(F)c(N3CCN(S(=O)(=O)c4ccc(OC)c(OC)c4)CC3)cc21
Response: 102

Prompt: Requested read-out: growth. Entry: CC(C)CCN(CCCNc1c2c(nc3ccccc13)CCCC2)CCC(C)C
Response: 83.6

Prompt: I am curious: what growth value has been reported for Cc1ccc2c(c1)ncn2-c1ncnc2c1CC(C)c1ccccc1N2C (stereo not drawn) ?
Response: 54.8

Prompt: growth for O=C(Nc1ccc(F)c(Cl)c1)c1n[nH]c(=O)c2ccccc12 ?
Response: 107

Prompt: growth for O=C(c1ccncc1)N1N=C(c2ccc(Cl)cc2)CC1c1c[nH]c2ccccc12 (stereo not drawn) ?
Response: 105

Prompt: Sample O=C1Nc2cc(Cl)ccc2Oc2cc(Oc3ccccc3)ccc21 — what was its growth?
Response: 83

Prompt: # growth lookup, item O=S(=O)(NCCNc1cc(-c2cn(-c3ccccc3)nc2-c2ccccc2)ccn1)c1cccc2ccccc12
Response: 74.4

Prompt: Given CCN1C(=O)N(CC)C2Nn3c(s/c(=C4\C(=O)N(C5CCCC5)c5ccccc54)c3=O)=NC21 (stereo not drawn) , state its recorded growth.
Response: 77.5

Prompt: Look up growth for this compound: Nc1c(C(=O)Nc2cccc(Cl)c2Cl)sc2nc3c(cc12)C(=O)CCC3
Response: 99.1

# credit: PubChem BioAssay (NCI)
